Field: pIC50. Provide a value for each of the binders that follow.
- tested_on: T1, VEGF-C C137S
- T1 construct: also called hVEGF-C C137S; human VEGF-C C137S
- T1 VEGF-C: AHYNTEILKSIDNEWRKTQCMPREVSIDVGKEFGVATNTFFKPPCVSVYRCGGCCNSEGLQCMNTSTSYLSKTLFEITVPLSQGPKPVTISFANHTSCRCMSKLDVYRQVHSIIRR
- test: phage competition ELISA as in paragraph 556 with human VEGF-C C137S as antigen: phage-displayed clone, soluble antigen varied, anti-M13-HRP, OD450
Give bare numbers, as −log10 of the molar value.

// known answers, use as guide
• VC1.12.6 (antibody, V domains shown, also called clone VC1.12.6) VH: EVQLVESGGGLVQPGGSLRLSCAASGFTFSDSDIHWVRQAPGKGLEWVAWISPYVGFTDYADSVKGRFTISADTSKNTAYLQMNSLRAEDTAVYYCARLFDVIFDYWGQGTLVTVSS VL: DIQMTQSPSSLSASVGDRVTITCRASQDVSTAVAWYQQKPGKAPKLLIYSASFLYSGVPSRFSGSGSGTDFTLTISSLQPEDFATYYCQQSYNTPPTFGQGTKVEIK = 7.48
• VC1.12 (antibody, V domains shown, also called clone VC1.12) VH: EVQLVESGGGLVQPGGSLRLSCAASGFTFSDSDIHWVRQAPGKGLEWVAWISPYVGFTDYADSVKGRFTISADTSKNTAYLQMNSLRAEDTAVYYCARLFDVIFDYWGQGTLVTVSS VL: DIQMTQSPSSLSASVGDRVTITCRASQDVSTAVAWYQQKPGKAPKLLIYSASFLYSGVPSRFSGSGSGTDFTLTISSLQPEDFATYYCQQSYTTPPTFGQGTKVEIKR = 7.49

### Prompt May I ask what pIC50 has been recorded for VC1.12.10 (antibody, V domains shown, also called clone VC1.12.10) VH: EVQLVESGGGLVQPGGSLRLSCAASGFTFSDSDIHWVRQAPGKGLEWVAWISPYVGFTDYADSVKGRFTISADTSKNTAYLQMNSLRAEDTAVYYCARLFDVIFDYWGQGTLVTVSS VL: DIQMTQSPSSLSASVGDRVTITCRASQDVSTAVAWYQQKPGKAPKLLIYSASFLYSGVPSRFSGSGSGTDFTLTISSLQPEDFATYYCQQSYYSPLTFGQGTKVEIK ?
### Response 7.77
